Reported inhibition at 0.1 µM values for the following compounds.
assay_system: AR protein (Homo sapiens, UniProt P10275, T878A)
Construct: degradation activity of the compounds disclosed in the present disclosure on AR protein in LNCaP cells; host or cells: LNCaP FGC
experimental_details: Degradation of AR protein in LNCaP cells (Western blot)
Assay type: cell-based
condition_description: LNCaP cells, compound 100 nM, 8 hours, Western blot grayscale, GAPDH internal reference; read-out: Degradation rates of the AR protein in LNCaP cells, 100 nM (%)
measure_name: inhibition at 0.1 µM

>>> result("N#Cc1ccc(O[C@H]2CC[C@H](NC(=O)c3ccc(N4CCC5(CC4)COc4cc6c(cc4O5)C(=O)N(C4CCC(=O)NC4=O)C6=O)nn3)CC2)cc1Cl (stereo partly drawn) [Compound 75]")
"36%"
>>> result("N#Cc1ccc(O[C@H]2CC[C@H](NC(=O)c3cnc(N4CCC5(CC4)COc4c5ccc5c4CN(C4CCC(=O)NC4=O)C5=O)nc3)CC2)cc1Cl (stereo partly drawn) [Compound 201]")
"32%"
>>> result("N#Cc1ccc(O[C@H]2CC[C@H](NC(=O)c3ccc(N4CCC(CN5CC6(CCc7cc8c(cc7O6)CN(C6CCC(=O)NC6=O)C8=O)C5)CC4)nn3)CC2)cc1Cl (stereo partly drawn) [Compound 7]")
"79%"

====

Reported inhibition at 0.1 µM values for the following compounds.
assay_system: AR protein (Homo sapiens, UniProt P10275)
Construct: degradation activity of the compounds disclosed in the present disclosure on AR protein in VCaP cells; host or cells: VCaP
Sequence (P10275 1-920): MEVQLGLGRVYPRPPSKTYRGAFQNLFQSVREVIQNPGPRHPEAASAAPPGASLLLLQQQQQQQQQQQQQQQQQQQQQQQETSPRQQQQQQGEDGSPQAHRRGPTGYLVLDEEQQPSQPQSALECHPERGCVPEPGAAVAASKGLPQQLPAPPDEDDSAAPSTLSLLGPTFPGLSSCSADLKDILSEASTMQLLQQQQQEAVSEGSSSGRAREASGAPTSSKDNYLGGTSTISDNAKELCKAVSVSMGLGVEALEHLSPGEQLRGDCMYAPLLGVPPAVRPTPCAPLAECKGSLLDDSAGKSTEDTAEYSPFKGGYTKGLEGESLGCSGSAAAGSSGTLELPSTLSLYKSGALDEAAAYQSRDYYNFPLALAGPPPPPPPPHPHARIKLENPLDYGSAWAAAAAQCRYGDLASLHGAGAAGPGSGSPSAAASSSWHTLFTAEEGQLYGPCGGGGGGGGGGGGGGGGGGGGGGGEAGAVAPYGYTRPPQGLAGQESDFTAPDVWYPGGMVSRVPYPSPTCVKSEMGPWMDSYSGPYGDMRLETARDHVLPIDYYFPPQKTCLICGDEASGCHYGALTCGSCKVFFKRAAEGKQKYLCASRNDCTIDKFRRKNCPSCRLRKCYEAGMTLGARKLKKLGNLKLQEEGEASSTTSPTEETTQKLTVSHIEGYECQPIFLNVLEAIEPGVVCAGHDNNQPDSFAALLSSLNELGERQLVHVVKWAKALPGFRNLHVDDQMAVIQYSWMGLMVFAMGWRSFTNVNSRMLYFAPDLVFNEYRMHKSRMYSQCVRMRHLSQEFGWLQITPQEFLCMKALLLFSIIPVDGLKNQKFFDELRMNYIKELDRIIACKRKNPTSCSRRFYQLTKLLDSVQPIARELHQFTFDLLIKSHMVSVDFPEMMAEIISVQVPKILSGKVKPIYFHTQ
experimental_details: Degradation of AR protein in VCaP cells (Western blot)
Assay type: cell-based
condition_description: compound at 100 nM, 8 hours, read-out: Degradation rate of the AR protein in VCaP cells, 100 nM (%)
measure_name: inhibition at 0.1 µM (%)

>>> readout_number("COc1cc(O[C@H]2CC[C@H](NC(=O)c3ccc(N4CCC(CN5CC6(CCc7cc8c(cc7O6)C(=O)N(C6CCC(=O)NC6=O)C8=O)C5)(OC)CC4)nn3)CC2)ccc1C#N (some centres unmarked)")
63
>>> readout_number("COc1cc(O[C@H]2C(C)(C)[C@H](NC(=O)c3ccc(N4CCC(CN5CC6(CCc7cc8c(cc7O6)CN(C6CCC(=O)NC6=O)C8=O)C5)CC4)cc3)C2(C)C)ccc1C#N (some centres unmarked)")
81
>>> readout_number("COc1cc(O[C@H]2C(C)(C)[C@H](NC(=O)c3ccc(N4CCC(CN5CCC6(CC5)COc5c6ccc6c5CN(C5CCC(=O)NC5=O)C6=O)(OC)CC4)cc3)C2(C)C)ccc1C#N (some centres unmarked)")
83
>>> readout_number("COc1cc(O[C@H]2C(C)(C)[C@H](NC(=O)c3ccc(N4CCC(C#N)(CN5CCC6(CC5)COc5c6ccc6c5C(=O)N(C5CCC(=O)NC5=O)C6=O)CC4)cc3)C2(C)C)ccc1C#N (some centres unmarked)")
37
>>> readout_number("COc1cc(O[C@H]2C(C)(C)[C@H](NC(=O)c3ccc(N4CCC(C#N)(CN5CCC6(CC5)COc5c6ccc6c5CN(C5CCC(=O)NC5=O)C6=O)CC4)nn3)C2(C)C)ccc1C#N (some centres unmarked)")
57
>>> readout_number("N#Cc1ccc(O[C@H]2CC[C@H](NC(=O)c3ccc(N4CCC(C#N)(CN5CCC6(CC5)COc5c6ccc6c5C(=O)N(C5CCC(=O)NC5=O)C6=O)CC4)nn3)CC2)cc1Cl (some centres unmarked)")
60
>>> readout_number("COc1cc(O[C@H]2C(C)(C)[C@H](NC(=O)c3ccc(N4CCC(F)(CN5CCC6(CC5)COc5cc7c(cc56)C(=O)N(C5CCC(=O)NC5=O)C7=O)CC4)cc3)C2(C)C)ccc1C#N (some centres unmarked)")
7
>>> readout_number("N#Cc1ccc(O[C@H]2CC[C@H](NC(=O)c3ccc(N4CCC(F)(CN5CC6(CCc7ccc8c(c7O6)C(=O)N(C6CCC(=O)NC6=O)C8)C5)CC4)nn3)CC2)cc1Cl (some centres unmarked)")
-31
>>> readout_number("COC1(CN2CCC3(CC2)COc2ccc4c(c2C3)C(=O)N(C2CCC(=O)NC2=O)C4)CCN(c2ccc(C(=O)N[C@H]3CC[C@H](Oc4ccc(C#N)c(Cl)c4)CC3)nn2)CC1 (some centres unmarked)")
35
>>> readout_number("CCC1(CN2CCC3(CC2)COc2c3ccc3c2C(=O)N(C2CCC(=O)NC2=O)C3=O)CCN(c2ccc(C(=O)N[C@H]3CC[C@H](Oc4ccc(C#N)c(C(F)(F)F)c4)CC3)nn2)CC1 (some centres unmarked)")
17
>>> readout_number("CC1(CN2CCC3(CC2)COc2c3ccc3c2CN(C2CCC(=O)NC2=O)C3=O)CCN(c2ccc(C(=O)N[C@H]3C(C)(C)[C@H](Oc4ccc(C#N)c(Cl)c4)C3(C)C)cc2)CC1 (some centres unmarked)")
61
>>> readout_number("N#Cc1ccc(O[C@H]2CC[C@H](NC(=O)c3ccc(N4CC5(CCC(N6CCC7(CC6)COc6cc8c(cc67)C(=O)N(C6CCC(=O)NC6=O)C8=O)CC5)C4)nn3)CC2)cc1Cl (some centres unmarked)")
71
>>> readout_number("CC1(C)[C@H](NC(=O)c2ccc(N3CCC(C#N)(CN4CCC5(CC4)COc4c5ccc5c4CN(C4CCC(=O)NC4=O)C5=O)CC3)nn2)C(C)(C)[C@H]1Oc1ccc(C#N)c(Cl)c1 (some centres unmarked)")
30
>>> readout_number("COc1cc(OC2C(C)(C)C(NC(=O)c3ccc(N4CCC(CN5CCC6(CC5)COc5cc7c(cc56)C(=O)N(C5CCC(=O)NC5=O)C7=O)CC4)cc3)C2(C)C)ccc1C#N (centres unmarked)")
77
>>> readout_number("N#Cc1ccc(O[C@H]2CC[C@H](NC(=O)c3ccc(C#Cc4ccc(N5CCC6(CC5)COc5c6ccc6c5CN(C5CCC(=O)NC5=O)C6=O)nc4)nn3)CC2)cc1Cl (some centres unmarked)")
54
>>> readout_number("N#Cc1ccc(O[C@H]2CC[C@H](NC(=O)c3ccc(N4CCC5(CC4)CC(F)(F)c4cc6c(cc4O5)C(=O)N(C4CCC(=O)NC4=O)C6=O)nn3)CC2)cc1Cl (some centres unmarked)")
19
>>> readout_number("N#Cc1ccc(O[C@H]2CC[C@H](NC(=O)c3ccc(N4CCC(CN5CC6(CCc7cc8c(cc7O6)CN(C6CCC(=O)NC6=O)C8=O)C5)CC4)nn3)CC2)cc1Cl (some centres unmarked)")
79
>>> readout_number("N#Cc1ccc(O[C@H]2CC[C@H](NC(=O)c3ccc(N4CCC5(CC(N6CCC7(CCc8cc9c(cc8O7)C(=O)N(C7CCC(=O)NC7=O)C9=O)CC6)C5)C4)nn3)CC2)cc1Cl (some centres unmarked)")
58
>>> readout_number("N#Cc1ccc(O[C@H]2CC[C@H](NC(=O)c3ccc(N4CCC(CC(=O)N5CCC6(CC5)COc5c6ccc6c5CN(C5CCC(=O)NC5=O)C6=O)CC4)nn3)CC2)cc1Cl (some centres unmarked)")
86
>>> readout_number("COc1cc(O[C@H]2C(C)(C)[C@H](NC(=O)c3ccc(N4CCC(F)(CN5CCC6(CC5)COc5c6ccc6c5C(=O)N(C5CCC(=O)NC5=O)C6=O)CC4)cc3)C2(C)C)ccc1C#N (some centres unmarked)")
51
